Where these numbers come from: patent US20230089867A1

- tested.on: human PCSK9 (Homo sapiens, UniProt Q8NBP7)
- Sequence (Q8NBP7 153-692): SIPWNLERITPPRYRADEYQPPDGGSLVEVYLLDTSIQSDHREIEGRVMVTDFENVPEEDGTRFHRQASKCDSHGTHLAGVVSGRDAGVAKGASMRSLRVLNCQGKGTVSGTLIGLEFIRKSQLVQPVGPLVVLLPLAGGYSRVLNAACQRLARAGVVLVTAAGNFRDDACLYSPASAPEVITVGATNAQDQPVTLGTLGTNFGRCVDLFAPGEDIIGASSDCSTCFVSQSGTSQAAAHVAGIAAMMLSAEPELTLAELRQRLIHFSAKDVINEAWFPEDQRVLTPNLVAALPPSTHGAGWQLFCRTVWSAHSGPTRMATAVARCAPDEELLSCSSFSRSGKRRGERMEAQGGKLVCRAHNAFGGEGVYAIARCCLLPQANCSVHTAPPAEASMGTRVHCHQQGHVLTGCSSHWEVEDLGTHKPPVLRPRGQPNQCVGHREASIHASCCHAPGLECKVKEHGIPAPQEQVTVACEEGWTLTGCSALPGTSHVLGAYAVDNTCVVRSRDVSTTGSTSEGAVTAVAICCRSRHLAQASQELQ
- Sequence (Q8NBP7 31-152 partner limits assumed): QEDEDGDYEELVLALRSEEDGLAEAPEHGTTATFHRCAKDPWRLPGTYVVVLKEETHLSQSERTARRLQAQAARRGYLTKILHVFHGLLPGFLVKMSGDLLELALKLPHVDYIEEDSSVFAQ
- assay.explanation: PCSK9 ligand binding TR-FRET assay (interference with binding of human PCSK9 to human LDLR)
- test.parameters: PCSK9 FRET assay, efficacy (Amax); 100% = 1 uM unlabeled human PCSK9, 0% = DMSO
property.label: Max % inhibition (%)

[[record]]
compound = "COC[C@@H]1NC(=O)[C@H](CC(=O)O)N(Cc2ccc(Cl)cc2Oc2ccc(-c3cnc(CN(C)C)n3C)cc2)C(=O)C[C@@H](Cc2ccccc2)C(=O)N(C)[C@@H](C)CNC(=O)C[C@H](Cc2ccc(Cl)cc2)N(C)C1=O"
reported_value = 99.99

[[record]]
compound = "COC[C@H]1C(=O)N[C@@H](CO)C(=O)N(C)[C@@H](Cc2ccc(Cl)cc2)CC(=O)NC[C@H](C)N(C)C(=O)CCC(=O)N1Cc1ccccc1Oc1ccc(-c2cnc(CN(C)C)n2C)cc1"
reported_value = 93.78

[[record]]
compound = "COC[C@@H]1NC(=O)[C@H](C)N(Cc2ccc(Cl)cc2Oc2ccc(-c3cnc(CN4CC5(COC5)C4)n3C)cc2)C(=O)C[C@@H](Cc2ccccc2)C(=O)N(C)[C@H]2CCCC[C@@H]2NC(=O)C[C@H](Cc2ccc(Cl)cc2)N(C)C1=O"
reported_value = 89.28

[[record]]
compound = "CNC(=O)C[C@@H]1NC(=O)[C@H](C)N(Cc2ccc(Cl)cc2Oc2ccc(-c3cnc(CN(C)C)n3C)cc2)C(=O)C[C@@H](Cc2ccccc2)C(=O)N(C)[C@@H](C)CNC(=O)C[C@H](Cc2ccc(Cl)cc2)N(C)C1=O"
reported_value = 98.35

[[record]]
compound = "COC[C@@H]1NC(=O)[C@H](C)N(Cc2ccc(Cl)cc2Oc2ccc(-c3cnc(CN(C)C)n3C)cn2)C(=O)C[C@@H](Cc2ccccc2)C(=O)N(C)[C@H]2CCCC[C@@H]2NC(=O)C[C@H](Cc2ccc(Cl)cc2)N(C)C1=O"
reported_value = 105.53

[[record]]
compound = "COC[C@@H]1NC(=O)C(C)N(Cc2ccc(F)cc2Oc2ccc(-c3cnc(CN(C)C)n3C)cc2)C(=O)C[C@@H](Cc2ccccc2)C(=O)N(C)[C@H]2CCCC[C@@H]2NC(=O)C[C@H](Cc2ccc(Cl)cc2)N(C)C1=O (some centres unmarked)"
reported_value = 93.92

[[record]]
compound = "COC[C@@H]1NC(=O)[C@H](C)N(Cc2ccc(Cl)cc2Oc2ccc(-c3cnc(CN(C)C)n3C)cc2)C(=O)C[C@@H](C2CC2)C(=O)N(C)[C@@H](C)CNC(=O)C[C@H](Cc2ccc(Cl)cc2)N(C)C1=O"
reported_value = 95.08

[[record]]
compound = "COC[C@@H]1NC(=O)[C@H](C)N(Cc2ccc(Cl)cc2Oc2ccc(-c3cnc(CN4CCCC4)n3C)cc2)C(=O)C[C@@H](Cc2ccccc2)C(=O)N(C)[C@@H](CCCCN)CNC(=O)C[C@H](Cc2ccc(Cl)cc2)N(C)C1=O.O=C(O)C(F)(F)F"
reported_value = 91.73

[[record]]
compound = "COC[C@@H]1NC(=O)[C@H](C)N(Cc2ccc(Cl)cc2Oc2ccc(-c3cnc(CN(C)C)n3C)cc2)C(=O)C[C@@H](Cc2ccc(F)c(F)c2F)C(=O)N(C)[C@@H](C)[C@H](C)NC(=O)C[C@H](Cc2ccc(Cl)cc2)N(C)C1=O"
reported_value = 103.68

[[record]]
compound = "COC[C@@H]1NC(=O)[C@H](C)N(Cc2ccc(Oc3ccc(-c4cnc(CN(C)C)n4C)cc3)cc2F)C(=O)C[C@@H](Cc2ccccc2)C(=O)N(C)C2CCCCC2NC(=O)C[C@H](Cc2ccc(Cl)cc2)N(C)C1=O (stereo in doubt)"
reported_value = 48.77

[[record]]
compound = "COC[C@@H]1NC(=O)[C@H](C)N(Cc2ccc(Cl)cc2Oc2ccc(-c3cnc(CN4CCCC4)n3C)c(C)c2)C(=O)C[C@@H](Cc2ccccc2)C(=O)N(C)[C@@H](C)CNC(=O)C[C@H](Cc2ccc(Cl)cc2)N(C)C1=O"
reported_value = 89.62

[[record]]
compound = "COC[C@@H]1NC(=O)[C@H](C)N(Cc2ccc(Cl)cc2Oc2ccc(-n3cnc(CN4CCCC4)c3C)cc2)C(=O)C[C@@H](Cc2ccccc2)C(=O)N(C)[C@H]2CCCC[C@@H]2NC(=O)C[C@H](Cc2ccc(Cl)cc2)N(C)C1=O"
reported_value = 106.65

[[record]]
compound = "COC[C@@H]1NC(=O)[C@H](C)N(Cc2cccc(F)c2Oc2ccc(-c3cnc(CN(C)C)n3C)cc2)C(=O)C[C@@H](Cc2ccccc2)C(=O)N(C)[C@@H](C)CNC(=O)C[C@H](Cc2ccc(Cl)cc2)N(C)C1=O"
reported_value = 96.17

[[record]]
compound = "COC[C@@H]1NC(=O)[C@H](C)N(Cc2c(F)cc(F)cc2Oc2ccc(-c3cnc(CN(C)C)n3C)cc2)C(=O)C[C@@H](Cc2ccccc2)C(=O)N(C)[C@@H](C)CNC(=O)C[C@H](Cc2ccc(Cl)cc2)N(C)C1=O"
reported_value = 95.33


----------
- tested.on: human PCSK9 (Homo sapiens)
- assay.explanation: PCSK9 ligand binding TR-FRET assay (interference with binding of human PCSK9 to human LDLR)
- test.parameters: TR-FRET; human PCSK9 Alexa Fluor 647 / human LDLR extracellular domain-Europium Kryptate; read-out: PCSK9 FRET Assay IC50
pIC50: −log10 of the molar value.
Below, each entry is listed with its recorded pIC50.
property.label: pIC50

[[record]]
compound = "COC[C@@H]1NC(=O)[C@H](C)N(Cc2ccc(Cl)cc2Oc2ccc(-c3cnc4n3CC[N+]3(CCCC3)C4)cc2)C(=O)C[C@@H](Cc2ccccc2)C(=O)N(C)[C@@H](C)CNC(=O)C[C@H](Cc2ccc(Cl)cc2)N(C)C1=O.Cl.[Cl-] [Compound 249, hydrochloride]"
property_label = "pIC50"
reported_value = 8.64

[[record]]
compound = "COC[C@@H]1NC(=O)C(C)N(Cc2ccc(Cl)cc2Oc2ccc(-c3cnc(CN(C)C)n3C)cc2)C(=O)C[C@@H](C)C(=O)N(C)[C@@H](CC(C)C)CNC(=O)C[C@H](Cc2ccc(Cl)cc2)N(C)C1=O (some centres unmarked)"
property_label = "pIC50"
reported_value = 8.03

[[record]]
compound = "COC[C@@H]1NC(=O)[C@H](C)N(Cc2ccc(Cl)cc2Oc2ccc(-c3cnc(CN4CCCC4)n3CCF)cc2)C(=O)C[C@@H](Cc2ccccc2)C(=O)N(C)[C@@H](C)CNC(=O)C[C@H](Cc2ccc(Cl)cc2)N(C)C1=O"
property_label = "pIC50"
reported_value = 8.54

[[record]]
compound = "CC(O)c1ncc(-c2ccc(Oc3cc(Cl)ccc3CN3C(=O)C[C@@H](Cc4ccccc4)C(=O)N(C)[C@@H](C)CNC(=O)C[C@H](Cc4ccc(Cl)cc4)N(C)C(=O)[C@H](CO)NC(=O)[C@@H]3C)cc2)n1C (some centres unmarked)"
property_label = "pIC50"
reported_value = 8.62

[[record]]
compound = "Cc1c(CN2CCCC2)cncc1-c1ccc(Oc2cc(Cl)ccc2CN2C(=O)C[C@@H](Cc3ccccc3)C(=O)N(C)[C@@H](C)CNC(=O)C[C@H](Cc3ccc(Cl)cc3)N(C)C(=O)[C@H](CO)NC(=O)[C@@H]2C)cc1"
property_label = "pIC50"
reported_value = 8.51


----------
- tested.on: human PCSK9 (Homo sapiens, UniProt Q8NBP7)
- assay.explanation: PCSK9 ligand binding TR-FRET assay (interference with binding of human PCSK9 to human LDLR)
- test.parameters: PCSK9 FRET assay, efficacy (Amax); 100% = 1 uM unlabeled human PCSK9, 0% = DMSO
property.label: Max % inhibition (%)

[[record]]
compound = "COC[C@@H]1NC(=O)[C@H](C)N(Cc2ccc(Cl)cc2Oc2ccc(-c3cnc(CN(C)C)n3C)cc2)C(=O)C[C@@H](Cc2cccc(C(F)F)c2)C(=O)N(C)[C@@H](C)CNC(=O)C[C@H](Cc2ccc(Cl)cc2)N(C)C1=O [Compound 56]"
output_unit = "%"
reported_value = 101.80

[[record]]
compound = "CCC(CC)[C@@H]1CC(=O)N(Cc2ccc(Cl)cc2Oc2ccc(-c3cnc(CN(C)C)n3C)cc2)[C@@H](C)C(=O)N[C@@H](COC)C(=O)N(C)[C@@H](Cc2ccc(Cl)cc2)CC(=O)NC[C@H](C)N(C)C1=O [Compound 40]"
output_unit = "%"
reported_value = 104.99

[[record]]
compound = "COC[C@@H]1NC(=O)[C@H](CCN(C)C)N(Cc2ccc(Cl)cc2Oc2ccc(-c3cnc(CN(C)C)n3C)cc2)C(=O)C[C@@H](Cc2ccccn2)C(=O)N(C)[C@H]2CCCC[C@@H]2NC(=O)C[C@H](Cc2ccc(Cl)cc2)N(C)C1=O [Compound 250]"
output_unit = "%"
reported_value = 84.24


----------
- tested.on: human PCSK9 (Homo sapiens)
- assay.explanation: PCSK9 ligand binding TR-FRET assay (interference with binding of human PCSK9 to human LDLR)
- test.parameters: TR-FRET; human PCSK9 Alexa Fluor 647 / human LDLR extracellular domain-Europium Kryptate; read-out: PCSK9 FRET Assay IC50
pIC50: −log10 of the molar value.
Hi, to clarify the labels: label 1 covers pIC50 from 8 upward, label 0 covers anything below 8.

[[record]]
compound = "C[C@H]1CNC(=O)C[C@H](Cc2ccc(Cl)cc2)N(C)C(=O)[C@H](CO)NC(=O)[C@H](C)N(Cc2ccc(Cl)cc2Oc2ccc3c(c2)C(=O)N(C2CCN(C)CC2)C3)C(=O)C[C@@H](Cc2ccccc2)C(=O)N1C [Compound 130]"
answer_label = "label 0"

[[record]]
compound = "COC[C@H]1C(=O)N[C@@H](CO)C(=O)N(C)[C@@H](Cc2ccc(Cl)cc2)CC(=O)NC[C@H](C)N(C)C(=O)CCC(=O)N1Cc1ccccc1Oc1ccc(-c2cnc(CN(C)C)n2C)cc1 [Compound 200]"
answer_label = "label 0"

[[record]]
compound = "COC[C@@H]1NC(=O)[C@H](C)N(Cc2ccc(Cl)cc2Oc2ccc(-c3cnc(CN4CCCC4)n3C)cc2)C(=O)C[C@@H](Cc2ccccc2F)C(=O)N(C)[C@@H](C)CNC(=O)C[C@H](Cc2ccc(Cl)cc2)N(C)C1=O [Compound 229]"
answer_label = "label 1"

[[record]]
compound = "COC[C@@H]1NC(=O)[C@H](C)N(Cc2ccc(Cl)cc2Oc2ccc(-c3cnc(C4CCCN4C)n3C)cc2)C(=O)C[C@@H](Cc2ccccc2)C(=O)N(C)[C@@H](C)CNC(=O)C[C@H](Cc2ccc(Cl)cc2)N(C)C1=O (some centres unmarked) [Compound 28]"
answer_label = "label 1"

